All values here come from paper PMC7587356.

# target_entity: SARS-CoV-2 3CLpro (Severe acute respiratory syndrome coronavirus 2, UniProt P0DTD1)
# measurement_protocol: biochemical
# Format: biochemical
# measurement_setup: 4 h, sheet LOPAC_screen_w_protease; primary screen of LOPAC1280 at 5 µM with protease; replicate 2; read-out: Replicate_2
Where a name gives a salt, the structure may show the parent alone.
I'd appreciate it if you could supply inhibition at 5 µM values for the items below.
Give bare numbers, in %.

Some compounds with known inhibition at 5 µM results, for comparison:
{"compound": "CNC(=O)[C@H]1O[C@@H](n2cnc3c(NCc4cccc(I)c4)nc(Cl)nc32)[C@H](O)[C@@H]1O", "target_entity": "SARS-CoV-2 3CLpro (Severe acute respiratory syndrome coronavirus 2, UniProt P0DTD1)", "assay_readout": "inhibition at 5 µM", "unit_info": "%", "result_number": 2.19}
{"compound": "CC1=NS(=O)(=O)c2cc(Cl)ccc2N1 [Diazoxide]", "target_entity": "SARS-CoV-2 3CLpro (Severe acute respiratory syndrome coronavirus 2, UniProt P0DTD1)", "assay_readout": "inhibition at 5 µM", "unit_info": "%", "result_number": 2.07}
{"compound": "c1ccc2cc(-c3ncc[nH]3)ccc2c1 [Benazoline oxalate]", "target_entity": "SARS-CoV-2 3CLpro (Severe acute respiratory syndrome coronavirus 2, UniProt P0DTD1)", "assay_readout": "inhibition at 5 µM", "unit_info": "%", "result_number": 4.83}
{"compound": "Cc1ncc(CNC(=O)N(CCCl)N=O)c(N)n1 [Nimustine hydrochloride]", "target_entity": "SARS-CoV-2 3CLpro (Severe acute respiratory syndrome coronavirus 2, UniProt P0DTD1)", "assay_readout": "inhibition at 5 µM", "unit_info": "%", "result_number": 2.97}
{"compound": "COc1ccc(OC)c(C(O)C(C)N)c1 (centres unmarked) [Methoxamine hydrochloride]", "target_entity": "SARS-CoV-2 3CLpro (Severe acute respiratory syndrome coronavirus 2, UniProt P0DTD1)", "assay_readout": "inhibition at 5 µM", "unit_info": "%", "result_number": 3.89}

Each compound below has a recorded value; state its inhibition at 5 µM.
1. O=C(C1CCCCC1)N1CC(=O)N2CCc3ccccc3C2C1 (centres unmarked)
2. CCn1cc(C(=O)O)c(=O)c2cc3c(cc21)OCO3
3. COc1cccc2c1[C@@H]1CN(CCCCn3c(=O)[nH]c4c(sc5ncc(-c6ccccc6)nc54)c3=O)C[C@@H]1CO2 [Fiduxosin hydrochloride]
4. CC(=O)Oc1cc(C(C)C)c(OCCN(C)C)cc1C [Moxisylyte hydrochloride]
5. Cc1ccc(=O)n(-c2ccccc2)c1

## Result
1. 4.15
2. 3
3. 3.01
4. 3.01
5. 5.33
